- Tested on: Plasmodium berghei
- protocol.summary: Screen against P. berghei liver stage (PbLuc), transformed with Luciferase, at 10uM
- Assay type: functional, HepG2
- particulars: tested at 10 uM
Among all 69,000 compounds or so, about 8,600 (12%) showed an effect of 50% or more. Only a selection was taken, and strong results are over-represented in it overall.
quantity.name: INHIBITION (%)
Dear colleague, please return just the value in %, with no unit written.

{"compound": "CCC(C)C(=O)NCc1c(C)nn(C)c1N1CCCN(C)CC1 (stereo not given)", "INHIBITION, %": -1.32}
{"compound": "O=C(NCCCn1nc2ccccn2c1=O)NCCC1CCC1", "INHIBITION, %": 37.9}
{"compound": "CCCn1nc2c(cc1=O)CN(CCN1CCCC1=O)CC2", "INHIBITION, %": -7.35}

Incoming: Endpoint output: INHIBITION of CCCn1nc2c(cc1=O)CN(CCCS(N)(=O)=O)CC2 . Value?
Outgoing: 47.6

Incoming: What INHIBITION value was documented for this compound, CCCn1nc2c(cc1=O)CN(CCS(C)(=O)=O)CC2 ?
Outgoing: 70.1
